All values here come from patent US4948782A.

System: Staphylococcus aureus ATCC 6538P
Experiment: MIC, Staphylococcus aureus ATCC 6538P (SA(1))
Format: cell-based
Conditions: Staphylococcus aureus, ATCC6538P, Staphylococcus aureus ATCC 6538P; read-out: MIC SA (1)
quantity.measured: MIC

CCC[N+](C)(C)[C@H]1C[C@@H](C)O[C@@H](O[C@@H]2[C@@H](C)[C@H](O[C@H]3C[C@@](C)(OC)[C@@H](O)[C@H](C)O3)[C@@H](C)C(=O)O[C@H](CC)[C@@]3(C)OC4(O[C@]2(C)CC4C)[C@H](C)[C@H]3O)[C@@H]1O (stereo partly shown): > 100 µg/mL
C=CC[N+](CC=C)(CC=C)C1CC(C)OC(OC2C(C)C(OC3CC(C)(OC)C(O)C(C)O3)C(C)C(=O)OC(CC)C(C)(O)C(O)C(C)C3=C(C)CC2(C)O3)C1O (stereo not shown): > 100 µg/mL

Return the recorded MIC value; entry: C#CC[N+](C)(C)[C@H]1C[C@@H](C)O[C@@H](O[C@@H]2[C@@H](C)[C@H](O[C@H]3C[C@@](C)(OC)[C@@H](OC=O)[C@H](C)O3)[C@@H](C)C(=O)O[C@H](CC)[C@@](C)(O)[C@H](O)[C@@H](C)C3=C(C)C[C@@]2(C)O3)[C@@H]1O
> 100 µg/mL

Return the recorded MIC value; entry: CCC[N+](C)(C)[C@H]1C[C@@H](C)O[C@@H](O[C@@H]2[C@@H](C)[C@H](O[C@H]3C[C@@](C)(OC)[C@@H](O)[C@H](C)O3)[C@@H](C)C(=O)O[C@H](CC)[C@@](C)(O)[C@H](O)[C@@H](C)C3O[C@]2(C)CC3C)[C@@H]1O (stereo partly shown)
> 100 µg/mL
